I'd be grateful if you could share measured EC50 for these entries.
target_entity: Cannabinoid receptor 2 (Homo sapiens)
assay_explanation: Agonist activity at human CB2 receptor expressed in yeast cells
Numbers only, in µM.

Consider the following items and state reported EC50 for each.
1. Cc1cnc(-c2ccc(N3CCCCCC3)nc2)c(C)c1
2. Clc1cccc(-c2ccc(N3CCCCCC3)nc2)c1Cl
3. FC(F)(F)c1cc(-c2cccc(Cl)c2Cl)cnc1N1CCCCCC1

Ans.
[1.26, 0.0398, 6.31]

Qu. What does the record list as EC50 for "Cc1cccnc1-c1ccc(N2CCCCCC2)nc1" ?
Ans. 0.794

====

I'd be grateful if you could share measured EC50 for these entries.
target_entity: Cannabinoid receptor 2 (Homo sapiens)
assay_explanation: Agonist activity at human CB2 receptor expressed in yeast cells
Numbers only, in nM.

| smiles_string | target_entity | unit_annotation | EC50 |
| --- | --- | --- | --- |
| Clc1ccc(Cl)c(-c2ccc(N3CCOCC3)nc2)c1 | Cannabinoid receptor 2 (Homo sapiens) | nM | 631 |
| CN(C)C(=O)c1cc(-c2cccc(Cl)c2Cl)cnc1N1CCCCCC1 | Cannabinoid receptor 2 (Homo sapiens) | nM | 794 |
| Cc1c(Cl)cccc1-c1ccc(N2CCOCC2)nc1 | Cannabinoid receptor 2 (Homo sapiens) | nM | 501 |

Consider the following items and state reported EC50 for each.
1. CCCCNc1ccc(-c2cccc(Cl)c2Cl)cn1
2. O=C(c1cc(-c2cccc(Cl)c2Cl)cnc1N1CCCCCC1)N1CCOCC1

Ans.
1: 79.4; 2: 79.4

Consider the following items and state reported EC50 for each.
1. Clc1cnc(-c2ccc(N3CCCCCC3)nc2)c(Cl)c1
2. Clc1cccc(-c2ccc(N3CCOCC3)nc2)c1

Ans.
1. 316
2. 1000

====

System: Liver microsomes
assay_explanation: Clearance in rat liver microsomes
Format: ADME, Microsome
I'd be grateful if you could share measured CL for these entries.
Numbers only, in mL/min/g.

Consider the following items and state reported CL for each.
1. Clc1cccc(-c2ccc(N3CCOCC3)nc2)c1Cl
2. C[C@@H]1CC[C@H](C)N1c1ccc(-c2cccc(Cl)c2Cl)cn1

Ans.
9.5
11

====

target_entity: Cannabinoid receptor 2 (Homo sapiens, UniProt P34972)
Sequence (P34972 whole entry): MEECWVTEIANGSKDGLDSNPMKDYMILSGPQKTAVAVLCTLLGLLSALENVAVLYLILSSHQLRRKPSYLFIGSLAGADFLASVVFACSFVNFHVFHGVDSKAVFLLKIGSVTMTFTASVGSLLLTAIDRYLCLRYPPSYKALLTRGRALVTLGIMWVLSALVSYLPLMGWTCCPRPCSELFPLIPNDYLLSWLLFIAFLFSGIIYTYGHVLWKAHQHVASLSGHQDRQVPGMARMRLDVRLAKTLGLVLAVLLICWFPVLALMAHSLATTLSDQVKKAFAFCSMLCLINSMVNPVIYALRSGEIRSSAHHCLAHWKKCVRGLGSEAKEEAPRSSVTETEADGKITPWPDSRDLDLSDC
assay_explanation: Agonist activity at human CB2 receptor expressed in yeast cells
I'd be grateful if you could share measured pEC50 for these entries.
Give bare numbers, as −log10 of the molar value.

| smiles_string | endpoint | recorded_number |
| --- | --- | --- |
| Fc1cccc(-c2ccc(N3CCOCC3)nc2)c1F | pEC50 | 6.60 |
| Clc1cccc(-c2ccc(N3CCSCC3)nc2)c1Cl | pEC50 | 6.80 |
| Clc1cccc(-c2ccc(N3CCCOCC3)nc2)c1Cl | pEC50 | 7.20 |
| c1cc2occc2c(-c2ccc(N3CCCCCC3)nc2)n1 | pEC50 | 7.20 |
| O=C1CCCN1c1ccc(-c2cccc(Cl)c2Cl)cn1 | pEC50 | 6.60 |

// below: pEC50 requested for another compound
Qu. What does the record list as pEC50 for "Clc1ccc(-c2ccc(N3CCOCC3)nc2)cc1Cl" ?
Ans. 5.40

====

target_entity: Cannabinoid receptor 2 (Homo sapiens, UniProt P34972)
assay_explanation: Agonist activity at human CB2 receptor expressed in yeast cells relative to HU210
Type: functional, cell-based
Quick rule: Efficacy of at least 40% means T, below that means F.

Worked examples, 6 compounds total:
| smiles_string | label_class |
| --- | --- |
| Clc1ccc(-c2ccc(N3CCCCCC3)nc2)nc1 | T |
| Clc1cccc(-c2ccc(N3CCCOCC3)nc2)c1Cl | T |
| N#Cc1cc(N2CCCCCC2)ncc1-c1cccc(Cl)c1Cl | T |
| Clc1ccc(Cl)c(-c2ccc(N3CCOCC3)nc2)c1 | F |
| Clc1cccc(-c2ccc(N3CCOCC3)nc2)c1Cl | T |
| Clc1cnc(-c2ccc(N3CCCCCC3)nc2)c(Cl)c1 | T |

Qu. Does the compound "Cc1cccnc1-c1ccc(N2CCCCCC2)nc1" have recorded Efficacy that is 40% or more?
Ans. T

Qu. Does the compound "CN(C)C(=O)c1cc(-c2cccc(Cl)c2Cl)cnc1N1CCCCCC1" have recorded Efficacy that is 40% or more?
Ans. F

Qu. Does the compound "C[C@@H]1CC[C@H](C)N1c1ccc(-c2cccc(Cl)c2Cl)cn1" have recorded Efficacy that is 40% or more?
Ans. F

Qu. Does the compound "Clc1cccc(-c2ccc(N3CCOCC3)nc2)c1" have recorded Efficacy that is 40% or more?
Ans. F

This collection of values is drawn from ChEMBL document CHEMBL1156134.
